Assayed System: WEE1 (Homo sapiens)
Construct: purchased Thermo Fisher PR7373A
Sequence (P30291 whole entry): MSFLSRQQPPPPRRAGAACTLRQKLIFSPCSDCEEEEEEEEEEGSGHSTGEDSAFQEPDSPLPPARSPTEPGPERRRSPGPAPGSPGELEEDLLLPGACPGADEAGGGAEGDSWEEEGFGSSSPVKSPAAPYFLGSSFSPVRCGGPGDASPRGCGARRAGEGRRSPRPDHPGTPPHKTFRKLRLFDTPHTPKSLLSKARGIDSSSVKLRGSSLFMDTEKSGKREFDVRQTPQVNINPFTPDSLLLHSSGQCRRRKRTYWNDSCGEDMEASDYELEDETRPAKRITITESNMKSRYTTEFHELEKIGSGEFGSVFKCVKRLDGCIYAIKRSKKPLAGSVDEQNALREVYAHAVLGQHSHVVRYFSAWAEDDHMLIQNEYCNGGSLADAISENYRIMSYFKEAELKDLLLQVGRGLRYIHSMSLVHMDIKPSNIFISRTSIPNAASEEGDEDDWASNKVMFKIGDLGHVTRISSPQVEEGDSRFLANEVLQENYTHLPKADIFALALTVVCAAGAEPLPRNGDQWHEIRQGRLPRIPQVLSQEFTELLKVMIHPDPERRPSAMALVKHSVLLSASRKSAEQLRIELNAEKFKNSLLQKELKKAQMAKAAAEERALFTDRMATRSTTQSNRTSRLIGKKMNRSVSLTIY
Assay Info: Selectivity versus WEE1 assay (ADP-Glo enzymatic assay)
Format: biochemical
Cond: WEE1 15 nM; ADP-Glo; banded values
Quantity: IC50

[
  {
    "Compound": "Cc1ccc(F)c(Nc2ncc(C(=O)Nc3c(C)ccc(O)c3C)s2)n1 [BAA-420]",
    "IC50": "> 11 µM"
  }
]

Continue with the compound presented below.
For the compound COCCn1cc(C)c(Nc2ncc(C(=O)Nc3c(C)ccc(O)c3C)s2)n1 [BAA-490] , what IC50 is on record?
1 to 11 µM

====

IC50 reference
Assayed System: Human PKMYT1 (Homo sapiens)
Construct: Human PKMYT1 75-362 was cloned as a TEV cleavable 6xHis fusion; 6xHis (TEV cleavable) (cleaved yes); made in house; host or cells: bacterial cells
Sequence (Q99640 75-362): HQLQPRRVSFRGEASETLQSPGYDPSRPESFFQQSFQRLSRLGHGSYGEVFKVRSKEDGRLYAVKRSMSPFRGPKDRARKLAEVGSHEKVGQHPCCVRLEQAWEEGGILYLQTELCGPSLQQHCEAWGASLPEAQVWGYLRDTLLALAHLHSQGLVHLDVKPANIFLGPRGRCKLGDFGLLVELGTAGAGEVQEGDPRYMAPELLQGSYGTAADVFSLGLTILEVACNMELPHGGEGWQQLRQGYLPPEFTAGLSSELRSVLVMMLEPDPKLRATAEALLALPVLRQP
Assay Info: PKMYT1 biochemical ADP-Glo enzymatic assay
Cond: PKMYT1 kinase domain 15 nM; ADP-Glo; banded values
Where a name gives a salt, the structure may show the parent alone.

Recorded IC50, per entry:
[
  {
    "Molecule": "Cc1cn(CC(=O)N(C)C2CCC2)nc1Nc1ncc(C(=O)Nc2c(C)ccc(O)c2C)s1",
    "Assayed System": "Human PKMYT1 (Homo sapiens)",
    "Reported Value": "< 50 nM"
  },
  {
    "Molecule": "Cc1ccc(O)c(C)c1NC(=O)c1cnc(Nc2ncc(F)cc2Cl)s1",
    "Assayed System": "Human PKMYT1 (Homo sapiens)",
    "Reported Value": "< 50 nM"
  },
  {
    "Molecule": "CCN(CC)C(=O)Cn1nc(C(F)(F)F)cc1Nc1ncc(C(=O)Nc2c(C)ccc(O)c2C)s1",
    "Assayed System": "Human PKMYT1 (Homo sapiens)",
    "Reported Value": "1000 to 11000 nM"
  }
]

If you can, please state the reported IC50 value of Cc1nc2cc(Nc3ncc(C(=O)Nc4c(C)ccc(O)c4C)s3)ccc2o1 .
50 to 1000 nM

Try Cc1ccc(O)c(C)c1NC(=O)c1cnc(Nc2cccc3c2OCC3)s1 [BAA-530, TFA salt] next.
50 to 1000 nM

Ok, now Cc1ccc(O)c(C)c1NC(=O)c1cnc(Nc2ncc(F)cc2F)s1
< 50 nM

Ok, now Cc1ccc(O)c(C)c1NC(=O)c1cnc(Nc2cn(CC(=O)N3CCCC3)nc2C)s1
50 to 1000 nM

Now the molecule O=C(Nc1c(Cl)ccc(O)c1F)c1cnc(Nc2ccn(CC(=O)N3CCCC3)n2)s1
< 50 nM

Next molecule: Cc1ccc(O)c(C)c1NC(=O)c1cnc(Nc2ccccc2C2CC2)s1
50 to 1000 nM
